# study.target: UniProt P56817
# assay.protocol: In Vitro BACE Cell-based Assay (HEK cell assay): Aβ40 in conditioned medium of cells stably expressing Amyloid Precursor Protein, sandwich ELISA
# condition.label: Table IV, class symbols; read-out: HEK cell assay
pIC50: −log10 of the molar value.
observed.property: pIC50

Reference set (5 entries):
| molecule | study.target | pIC50 |
| --- | --- | --- |
| CC(C)CCCOc1nccc2c1[C@@]1(COC(N)=N1)c1cc(-c3cccnc3)ccc1O2 | UniProt P56817 | < 5.30 |
| NC1=N[C@]2(CO1)c1cc(CCC3(O)CCC3)ccc1Oc1ccc(-c3cccnc3)cc12 | UniProt P56817 | > 7.00 |
| CC(C)(C)COc1ccc2c(c1)[C@]1(COC(N)=N1)c1cc(C3=CCCCC3)ccc1O2 | UniProt P56817 | 5.30 to 6.00 |
| COc1ccc(-c2ccc3c(c2)[C@]2(COC(N)=N2)c2cc(-c4cncnc4)ccc2O3)cc1OC | UniProt P56817 | 6.00 to 7.00 |
| CC(C)(C)COc1ccc2c(c1)[C@]1(COC(N)=N1)c1cc(-c3cccnc3F)cnc1O2 | UniProt P56817 | 6.00 to 7.00 |

Output measured pIC50 for this item: NC1=N[C@@]2(CO1)c1cc(-c3cccnc3F)ccc1Oc1ccc(N3CCOCC3)cc12 [Example 289, 2,2,2-trifluoroacetate]
> 7.00

Output measured pIC50 for this item: CC(C)Cc1cc2c3c(ccc2o1)Oc1ncc(-c2cncnc2)cc1[C@]31COC(N)=N1
5.30 to 6.00

* * *

# study.target: BACE1 (Homo sapiens)
# assay.protocol: In Vitro BACE Cell-based Assay (HEK cell assay): Aβ40 in conditioned medium of cells stably expressing Amyloid Precursor Protein, sandwich ELISA
# condition.label: read-out: HEK cell assay
observed.property: IC50

Reference set (3 entries):
| molecule | study.target | result |
| --- | --- | --- |
| CC(C)(O)COc1ccc2c(c1Br)[C@]1(COC(N)=N1)c1cc(-c3cccnc3)ccc1O2 [compound 944] | BACE1 (Homo sapiens) | < 100 nM |
| CCc1cc2c3c(ccc2o1)Oc1ncc(-c2cncnc2)cc1[C@]31COC(N)=N1 [compound 769] | BACE1 (Homo sapiens) | 1000 to 5000 nM |
| NC1=N[C@@]2(CO1)c1cc(-c3cccnc3)ccc1Oc1cnc(C3=CCCCO3)cc12 [compound 729] | BACE1 (Homo sapiens) | < 100 nM |

Output measured IC50 for this item: COC(C)(C)C#Cc1cnc2c(c1)[C@]1(COC(N)=N1)c1cc(-c3ccnc(F)c3)ccc1O2 [compound 687]
> 5000 nM

Output measured IC50 for this item: COC(C)(C)C#Cc1cnc2c(c1)[C@@]1(COC(N)=N1)c1cc(-c3ccnnc3)ccc1O2 [compound 681]
> 5000 nM

Output measured IC50 for this item: N#Cc1ccccc1Oc1ccc2c(c1)[C@]1(COC(N)=N1)c1cc(-c3cncnc3)ccc1O2 [compound 965]
> 5000 nM

Output measured IC50 for this item: CC(C)(C)COc1ccc2c(c1)[C@@]1(COC(N)=N1)c1cc(-c3cncc(F)c3)cnc1O2 [compound 753]
< 100 nM

Output measured IC50 for this item: COC(C)(C)C#Cc1ccc2c(c1)[C@@]1(COC(N)=N1)c1cc(OCC(C)(C)O)ccc1O2 [compound 768]
100 to 1000 nM

Output measured IC50 for this item: CC1(C)CC1c1cc2c(cn1)Oc1ccc(-c3cccnc3)cc1[C@]21COC(N)=N1 (stereo partly shown) [compound 677]
100 to 1000 nM

Output measured IC50 for this item: CC(C)(C)COc1ccc2c(c1)[C@]1(COC(N)=N1)c1cc(-c3ccc(C#N)cc3)ccc1O2 [compound 972]
> 5000 nM

Output measured IC50 for this item: COC(=O)c1ccc(-c2ccc3c(c2)[C@]2(COC(N)=N2)c2cc(-c4cccnc4)ccc2O3)s1 [compound 722]
< 100 nM

* * *

# study.target: BACE1 (Homo sapiens)
# assay.protocol: In Vitro BACE Cell-based Assay (HEK cell assay): Aβ40 in conditioned medium of cells stably expressing Amyloid Precursor Protein, sandwich ELISA
# condition.label: HEK cell-based assay, Aβ40 in conditioned medium, IC50 class symbols; read-out: HEK cell assay
observed.property: IC50

Reference set (4 entries):
| compound | study.target | IC50 |
| --- | --- | --- |
| NC1=NC2(CO1)c1cc(-c3cccnc3)ccc1Oc1c2cc(-c2cccnc2)nc1F (centres unmarked) [compound 301] | BACE1 (Homo sapiens) | < 100 nM |
| NC1=N[C@@]2(CO1)c1cc(-c3cccnc3)ccc1Oc1cnc(N3CCOCC3)cc12 [compound 335] | BACE1 (Homo sapiens) | < 100 nM |
| COc1ccc2c(c1)[C@]1(COC(N)=N1)c1cc(Br)cc(F)c1O2 [compound 377] | BACE1 (Homo sapiens) | 1000 to 5000 nM |
| NC1=N[C@@]2(CO1)c1cc(-c3cc(Cl)ccc3F)ccc1Oc1cnc(-c3ccncc3)cc12 [compound 330] | BACE1 (Homo sapiens) | < 100 nM |

# context switch: different compound, same IC50
Output measured IC50 for this item: COc1cncc(-c2ccc3c(c2)[C@@]2(COC(N)=N2)c2cc(OCC(C)(C)C)cnc2O3)c1 [compound 383]
< 100 nM

* * *

Readings of pIC50 for the listed compounds
# study.target: BACE1 (Homo sapiens, UniProt P56817)
# Sequence (P56817 46-501, species assumed): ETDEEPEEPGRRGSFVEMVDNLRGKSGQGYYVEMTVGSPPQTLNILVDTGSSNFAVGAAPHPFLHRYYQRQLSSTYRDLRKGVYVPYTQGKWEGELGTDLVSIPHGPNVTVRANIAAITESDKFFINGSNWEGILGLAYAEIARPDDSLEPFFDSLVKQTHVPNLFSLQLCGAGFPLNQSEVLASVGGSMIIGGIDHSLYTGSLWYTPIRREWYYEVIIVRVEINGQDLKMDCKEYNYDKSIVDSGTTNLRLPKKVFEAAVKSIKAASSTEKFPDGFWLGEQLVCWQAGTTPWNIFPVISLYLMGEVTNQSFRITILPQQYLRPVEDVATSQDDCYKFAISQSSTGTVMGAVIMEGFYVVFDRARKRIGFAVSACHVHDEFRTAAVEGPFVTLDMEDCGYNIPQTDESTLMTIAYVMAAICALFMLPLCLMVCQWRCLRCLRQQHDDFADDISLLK
# assay.protocol: In Vitro BACE Cell-based Assay (HEK cell assay): Aβ40 in conditioned medium of cells stably expressing Amyloid Precursor Protein, sandwich ELISA
# condition.label: HEK cell-based assay, Aβ40 in conditioned medium, IC50 class symbols; read-out: HEK cell assay
pIC50: −log10 of the molar value.

Reference set (3 entries):
| compound | result |
| --- | --- |
| NC1=N[C@@]2(CO1)c1cc(-c3cccnc3F)ccc1Oc1ccc(Cl)nc12 [compound 392] | 6.00 to 7.00 |
| COc1ccc2c(c1)[C@@]1(COC(N)=N1)c1cc(Br)cc(F)c1O2 [compound 406] | < 5.30 |
| NC1=N[C@@]2(CO1)c1cc(-c3cccnc3F)ccc1Oc1ccc([C@H]3CCCCO3)cc12 [compound 365] | > 7.00 |

# context switch: different compound, same pIC50
Output measured pIC50 for this item: CC(C)(F)COc1cnc2c(c1)[C@]1(COC(N)=N1)c1cc(C#CC3CC3)ccc1O2 [compound 382]
> 7.00

* * *

# Test system: amyloid beta peptide (A-beta) in cerebrospinal fluid and brain
# assay.protocol: In Vivo Inhibition of Beta-Secretase: reduction of A-beta levels in CSF and brain
# condition.label: 30 mpk, after 4 hrs, mouse or rat
observed.property: percent reduction in brain A-beta levels (%)
Reply with just the number (in %).

Reference set (6 entries):
| compound | percent reduction in brain A-beta levels [%] |
| --- | --- |
| C[C@@H]1CN(c2ccc3c(c2)[C@]2(COC(N)=N2)c2cc(-c4cccnc4)ccc2O3)C[C@H](C)O1 [Example 662] | 34 |
| NC1=N[C@@]2(CO1)c1cc(-c3ccccc3)ccc1Oc1cnc(C3=CCOCC3)cc12 [Example 545] | 58 |
| CC(C)(C)COc1ccc2c(c1)[C@]1(COC(N)=N1)c1cc(-c3cccnc3)cnc1O2 [Example 92] | 49 |
| NC1=NC2(CO1)c1cc(-c3cccnc3)ccc1Oc1c(F)cc(C3=CCOCC3)cc12 (stereo in doubt) [Example 297] | 54 |
| CC(C)(C)C#Cc1cnc2c(c1)[C@]1(COC(N)=N1)c1cc(-c3cncnc3)ccc1O2 [Example 299] | 81 |
| CC1(C)CN(c2ccc3c(c2)[C@]2(COC(N)=N2)c2cc(-c4cccnc4)ccc2O3)CCO1 [Example 663] | 44 |

Output measured percent reduction in brain A-beta levels for this item: CC(C)(C#N)COc1ccc2c(c1)[C@@]1(COC(N)=N1)c1cc(-c3ccccc3)cnc1O2 [Example 817]
25

* * *

# study.target: BACE1 (Homo sapiens, UniProt P56817)
# assay.protocol: In Vitro BACE Cell-based Assay (HEK cell assay): Aβ40 in conditioned medium of cells stably expressing Amyloid Precursor Protein, sandwich ELISA
# condition.label: Table IV, class symbols; read-out: HEK cell assay
pIC50: −log10 of the molar value.
Readings of pIC50 for the listed molecules

| molecule | observed.property | result |
| --- | --- | --- |
| CC(C)(C)C#Cc1cnc2c(c1)[C@]1(COC(N)=N1)c1cc(-c3ccnnc3)ccc1O2 [compound 653] | pIC50 | 6.00 to 7.00 |
| NC1=N[C@@]2(CO1)c1cc(-c3cccnc3F)ccc1Oc1cnc(-c3cccnc3F)cc12 [compound 550] | pIC50 | 6.00 to 7.00 |
| CC(C)(C)C#Cc1ccc2c(c1)[C@]1(COC(N)=N1)c1cc(-c3cccnc3)cnc1O2 [compound 896] | pIC50 | 5.30 to 6.00 |

# context switch: different molecule, same pIC50
Output measured pIC50 for this item: CC(C)(C)COc1ccc2c(c1)[C@]1(COC(N)=N1)c1cc(-c3ccc(C#N)nc3)ccc1O2 [compound 882]
5.30 to 6.00
